Observable: melting point

Observe how each entry below is paired with its result.
- Compound: "COC(=O)c1c(C)ncc2c1C(=O)C(Br)=C(NC(C(=O)OC)C(C)C)C2=O (centres unmarked) [Compound 13a]"
  melting point: "105.2 to 107 °C"
- Compound: "COC(=O)c1c(C)ncc2c1C(=O)C(Br)=C(NC(Cc1ccccc1)C(=O)OC)C2=O (centres unmarked)"
  melting point: "125.2 to 127.5 °C"
- Compound: "COC(=O)c1c(C)ncc2c1C(=O)C(Br)=C(NC(CC(C)C)C(=O)OC)C2=O (centres unmarked)"
  melting point: "104.3 to 106.2 °C"

Value of measured melting point for the entry COC(=O)c1c(C)ncc2c1C(=O)C(N[C@@H](CC(C)C)C(=O)OC)=CC2=O : 58.5 to 60.5 °C
